Reference for the values: patent US10144742B2

Molecular target: hNAMPT protein (Homo sapiens (Human), UniProt P43490)
Sequence (P43490 whole entry): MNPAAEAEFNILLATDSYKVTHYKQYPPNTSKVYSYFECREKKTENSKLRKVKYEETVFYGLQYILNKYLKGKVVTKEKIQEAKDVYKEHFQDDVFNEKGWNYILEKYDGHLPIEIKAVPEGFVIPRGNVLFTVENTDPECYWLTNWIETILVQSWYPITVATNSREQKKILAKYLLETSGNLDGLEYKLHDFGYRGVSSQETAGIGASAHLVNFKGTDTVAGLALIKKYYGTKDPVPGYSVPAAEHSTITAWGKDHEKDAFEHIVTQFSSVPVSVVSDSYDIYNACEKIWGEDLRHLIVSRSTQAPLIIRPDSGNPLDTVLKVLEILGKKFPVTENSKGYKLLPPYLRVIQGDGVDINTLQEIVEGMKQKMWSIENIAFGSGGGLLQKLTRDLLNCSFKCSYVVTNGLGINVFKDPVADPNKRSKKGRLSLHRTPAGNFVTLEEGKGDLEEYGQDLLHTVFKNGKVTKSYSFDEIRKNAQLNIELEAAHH
Assay: NAMPT enzyme assay (TR-FRET/HTRF, BodiPY ligand, anti 6His-Tb)
Format: binding
Details: NAMPT IC50 range class; read-out: IC50
QUANTITY_MEASURED: IC50

Worked cases, answers included:
## Task Return IC50 for the following molecule: O=C(NCc1ccc2nccn2c1)c1ccc2nc(-c3ccc(F)cc3)c(-c3ccc(F)cc3)nc2c1
## Result 100 to 500 nM

## Task Return IC50 for the following molecule: O=C(NCCCn1ccnc1)c1ccc2nc(N3CCC4(CC3)Cc3ccccc3O4)c(-c3ccccc3)nc2c1
## Result 1000 to 2000 nM

Kindly review the next molecule as well.
## Task Return IC50 for the following molecule: O=C(CCCn1ccnc1)Nc1ccc2nc(-c3ccc(F)cc3)c(-c3ccc(F)cc3)nc2c1
## Result 1000 to 2000 nM

====

Target: hNAMPT protein (Homo sapiens (Human))
Test: NAMPT enzyme assay (TR-FRET/HTRF, BodiPY ligand, anti 6His-Tb)
Assay type: binding
Settings: compound concentration 1 μM; read-out: Percent Inhibition
Description: As discussed above, the invention provides compounds that are useful as inhibitors of the enzyme NAMPT. The NAMPT inhibition of a compound of the invention can be measured using a variety of methods known in the art. […] The TR-FRET signal can be measured using a high throughput microplate reader (e.g., Pherastar). […] The percent inhibition value at a single concentration of compound of the invention can be calculated relative to a control treated sample. […]
inhibition at 1 µM reference
Form entry: value (%) — number only.

Worked cases, answers included:
## Task Report inhibition at 1 µM on hNAMPT protein (Homo sapiens (Human)) for this entry: O=C(NCCCc1ncc[nH]1)c1ccc2nc(N3CCOCC3)c(-c3ccc(Cl)cc3)nc2c1
## Result 100

## Task Report inhibition at 1 µM on hNAMPT protein (Homo sapiens (Human)) for this entry: O=C(NCc1ccc2nccn2c1)c1ccc2nc(N3CCOCC3)c(-c3ccc(F)cc3)nc2c1
## Result 95

## Task Report inhibition at 1 µM on hNAMPT protein (Homo sapiens (Human)) for this entry: O=C(NCCCn1ccnc1)c1ccc2nc(-c3ccccc3)c(-c3ccccc3)nc2c1
## Result 67

## Task Report inhibition at 1 µM on hNAMPT protein (Homo sapiens (Human)) for this entry: O=C(NCCCc1ncc[nH]1)c1ccc2nc(OCCc3cnoc3)c(-c3ccc(F)cc3)nc2c1
## Result 99

## Task Report inhibition at 1 µM on hNAMPT protein (Homo sapiens (Human)) for this entry: O=C(NCCCn1ccnc1)c1ccc2nc(N3CCN4C(=O)CCC4C3)c(-c3ccccc3)nc2c1 (centres unmarked)
## Result 86

Continuing:
## Task Report inhibition at 1 µM on hNAMPT protein (Homo sapiens (Human)) for this entry: CC(=O)Nc1ccccc1-c1nc2ccc(C(=O)NCCCn3ccnc3)cc2nc1-c1ccccc1
## Result 41

## Task Report inhibition at 1 µM on hNAMPT protein (Homo sapiens (Human)) for this entry: O=C(NCCCn1ccnc1)c1ccc2nc(-c3ccccc3)c(N3CCCC(O)C3)nc2c1 (centres unmarked)
## Result 39

## Task Report inhibition at 1 µM on hNAMPT protein (Homo sapiens (Human)) for this entry: O=C(NCCCc1ncc[nH]1)c1ccc2nc(-c3ccc(F)cc3)c(-c3ccc(F)cc3F)nc2c1
## Result 84

## Task Report inhibition at 1 µM on hNAMPT protein (Homo sapiens (Human)) for this entry: O=C(NCCCc1ncc[nH]1)c1ccc2nc(-n3ccc4cnccc43)c(-c3ccc(F)cc3)nc2c1
## Result 93

## Task Report inhibition at 1 µM on hNAMPT protein (Homo sapiens (Human)) for this entry: Cn1ccnc1CCCNC(=O)c1ccc2nc(-c3ccc(F)cc3)c(-c3ccc(F)cc3)nc2c1
## Result 100

## Task Report inhibition at 1 µM on hNAMPT protein (Homo sapiens (Human)) for this entry: O=C(NCCCn1ccnc1)c1ccc2nc(N3CCC(N4CCOCC4)C3)c(-c3ccccc3)nc2c1 (centres unmarked)
## Result 81

====

inhibition at 1 µM reference
Biological target: hNAMPT protein (Homo sapiens (Human), UniProt P43490)
Assay: NAMPT enzyme assay (TR-FRET/HTRF, BodiPY ligand, anti 6His-Tb)
Type: binding
Conditions: NAMPT inhibition at compound concentration 1 μM; read-out: Percent Inhibition
Form entry: value (%) — number only.

Worked cases, answers included:
## Task Return inhibition at 1 µM for the following compound: O=C(NCCCc1ncc[nH]1)c1ccc2nc(-c3ccc(F)cc3)c(-c3sccc3Cl)nc2c1 [Compound I-504]
## Result 93

## Task Return inhibition at 1 µM for the following compound: COc1ccc(-c2nc3cc(C(=O)NCCCc4ncc[nH]4)ccc3nc2-c2ccc(F)cc2)cc1F [Compound I-470]
## Result 81

## Task Return inhibition at 1 µM for the following compound: O=C(NCCCc1ncc[nH]1)c1ccc2nc(-c3ccc(F)cc3)c(-c3cc(C(F)(F)F)ccc3F)nc2c1 [Compound I-451]
## Result 97

Continuing:
## Task Return inhibition at 1 µM for the following compound: Cc1cccc(-c2nc3cc(C(=O)NCCCc4ncc[nH]4)ccc3nc2-c2ccc(F)cc2)c1 [Compound I-395]
## Result 83

====

Target: hNAMPT protein (Homo sapiens (Human), UniProt P43490)
Assay: NAMPT enzyme assay (TR-FRET/HTRF, BodiPY ligand, anti 6His-Tb)
Format: binding
Conditions: NAMPT inhibition at compound concentration 1 μM; read-out: Percent Inhibition
Returns one of MET or NOT MET; MET when inhibition at 1 µM is >= 70%.

Check out these entries, answers already filled in.
## Task inhibition at 1 µM >= 70% for O=C(NCCCc1ncc[nH]1)c1ccc2nc(-c3ccccc3)c(-c3cccs3)nc2c1 ?
## Result MET

## Task inhibition at 1 µM >= 70% for O=C(NCCCc1ncc[nH]1)c1ccc2nc(OCCc3ccccn3)c(-c3ccc(F)cc3)nc2c1 ?
## Result MET

## Task inhibition at 1 µM >= 70% for CN(C)C1CCC(Oc2nc3ccc(C(=O)NCCCc4ncc[nH]4)cc3nc2-c2ccc(F)cc2)CC1 (stereo not drawn) ?
## Result MET

## Task inhibition at 1 µM >= 70% for Cc1noc(C)c1COc1nc2ccc(C(=O)NCCCc3ncc[nH]3)cc2nc1-c1ccc(F)cc1 ?
## Result MET

## Task inhibition at 1 µM >= 70% for O=C(NCCCc1ncc[nH]1)c1ccc2nc(-n3cccn3)c(-c3ccc(F)cc3)nc2c1 ?
## Result MET

Continuing:
## Task inhibition at 1 µM >= 70% for CCOc1cc(-c2nc3cc(C(=O)NCCCc4ncc[nH]4)ccc3nc2-c2ccc(F)cc2)c(F)cn1 ?
## Result MET

## Task inhibition at 1 µM >= 70% for COc1ccc(-c2nc3cc(C(=O)NCCCc4ncc[nH]4)ccc3nc2-c2ccc(F)cc2)cc1 ?
## Result NOT MET

## Task inhibition at 1 µM >= 70% for O=C(NCCCc1ncc[nH]1)c1ccc2nc(-n3cncn3)c(-c3ccc(F)cc3)nc2c1 ?
## Result NOT MET

## Task inhibition at 1 µM >= 70% for C#CCOc1nc2ccc(C(=O)NCCCc3ncc[nH]3)cc2nc1-c1ccc(F)cc1 ?
## Result MET

## Task inhibition at 1 µM >= 70% for CN1CCCC(COc2nc3ccc(C(=O)NCCCc4ncc[nH]4)cc3nc2-c2ccc(F)cc2)C1 (stereo not drawn) ?
## Result MET

## Task inhibition at 1 µM >= 70% for O=C(NCCCc1ncc[nH]1)c1ccc2nc(OCC3CCCO3)c(-c3ccc(F)cc3)nc2c1 (stereo not drawn) ?
## Result MET

====

IC50 reference
Biological target: hNAMPT protein (Homo sapiens (Human), UniProt P43490)
Experiment: NAMPT enzyme assay (TR-FRET/HTRF, BodiPY ligand, anti 6His-Tb)
Assay type: binding
Settings: NAMPT inhibition, IC50 range class; read-out: IC50

Worked cases, answers included:
## Task Report IC50 on hNAMPT protein (Homo sapiens (Human), UniProt P43490) for this entry: Nc1ccc(-c2nc3cc(C(=O)NCCCc4ncc[nH]4)ccc3nc2-c2ccc(F)cc2)cc1
## Result 100 to 500 nM

## Task Report IC50 on hNAMPT protein (Homo sapiens (Human), UniProt P43490) for this entry: CC(C)Oc1nc2ccc(C(=O)NCCCc3ncc[nH]3)cc2nc1-c1cccc(SC(F)(F)F)c1
## Result 100 to 500 nM

## Task Report IC50 on hNAMPT protein (Homo sapiens (Human), UniProt P43490) for this entry: O=C(NCCCc1ncc[nH]1)c1ccc2nc(-n3cccn3)c(-c3ccc(F)cc3)nc2c1
## Result 100 to 500 nM

## Task Report IC50 on hNAMPT protein (Homo sapiens (Human), UniProt P43490) for this entry: CC(C)Oc1nc2ccc(C(=O)NCc3cn4cccnc4n3)cc2nc1-c1ccc(F)cc1
## Result 100 to 500 nM

## Task Report IC50 on hNAMPT protein (Homo sapiens (Human), UniProt P43490) for this entry: O=C(NCCCc1ncc[nH]1)c1ccc2nc(OCC3CC3)c(-c3ccc(F)cc3)nc2c1
## Result < 100 nM

## Task Report IC50 on hNAMPT protein (Homo sapiens (Human), UniProt P43490) for this entry: Cc1cccc(-c2nc3cc(C(=O)NCCCc4ncc[nH]4)ccc3nc2-c2ccc(F)cc2)c1
## Result 100 to 500 nM

## Task Report IC50 on hNAMPT protein (Homo sapiens (Human), UniProt P43490) for this entry: COc1ccc(F)c(-c2nc3cc(C(=O)NCCCc4ncc[nH]4)ccc3nc2-c2ccc(F)cc2)c1
## Result < 100 nM

## Task Report IC50 on hNAMPT protein (Homo sapiens (Human), UniProt P43490) for this entry: O=C(NCCCc1ncc[nH]1)c1ccc2nc(OC3CC4(CCN4)C3)c(-c3ccc(F)cc3)nc2c1 (centres unmarked)
## Result < 100 nM

## Task Report IC50 on hNAMPT protein (Homo sapiens (Human), UniProt P43490) for this entry: CCOc1nc2ccc(C(=O)NCCCc3ncc[nH]3)cc2nc1-c1ccc(Cl)cc1
## Result < 100 nM

## Task Report IC50 on hNAMPT protein (Homo sapiens (Human), UniProt P43490) for this entry: O=C(NCCCc1ncc[nH]1)c1ccc2nc(-c3ccc(F)cc3)c(-c3sccc3Cl)nc2c1
## Result < 100 nM

Continuing:
## Task Report IC50 on hNAMPT protein (Homo sapiens (Human), UniProt P43490) for this entry: O=C(NCCCc1ncc[nH]1)c1ccc2nc(-c3ccc(F)cc3)c(-c3ccc4nccn4c3)nc2c1
## Result 100 to 500 nM

## Task Report IC50 on hNAMPT protein (Homo sapiens (Human), UniProt P43490) for this entry: O=C(NCCCc1ncc[nH]1)c1ccc2nc(OC3CCCNC3)c(-c3ccc(F)cc3)nc2c1 (centres unmarked)
## Result < 100 nM

## Task Report IC50 on hNAMPT protein (Homo sapiens (Human), UniProt P43490) for this entry: CC(C)Oc1nc2ccc(C(=O)NCCCc3c[nH]cn3)cc2nc1-c1ccc(F)cc1
## Result 100 to 500 nM
